Collected phytotoxicity rating ECHCG values appear next to each entry.
Tested on: Echinochloa crus-galli
procedureText: Post-emergence herbicidal evaluation, ECHCG
measurementContext: 0.400 kg/ha, three weeks after treatment

smilesEntry: CCN(C(=O)COc1nnc(C(F)(F)C(F)(F)F)s1)C1=CC(C)(C)CC(C)=C1
targetSystem: Echinochloa crus-galli
phytotoxicity rating ECHCG: 0 (0 - No effect)
//
smilesEntry: CC1=CC(N(C)C(=O)COc2nnc(C(F)(F)C(F)(F)F)s2)=CC(C)(C)C1
targetSystem: Echinochloa crus-galli
phytotoxicity rating ECHCG: 0 (0 - No effect)
//
smilesEntry: CC1=CC(N(C)C(=O)COc2nnc(C(F)(F)F)s2)=CC(C)(C)C1
targetSystem: Echinochloa crus-galli
phytotoxicity rating ECHCG: 4 (4 - Injury)
//
smilesEntry: CCc1nnc(OCC(=O)N(CC)C2=CC(C)(C)CC(C)=C2)s1
targetSystem: Echinochloa crus-galli
phytotoxicity rating ECHCG: 0 (0 - No effect)
//
smilesEntry: CCN(C(=O)COc1nc2ccccc2o1)C1=CC(C)(C)CC(C)=C1
targetSystem: Echinochloa crus-galli
phytotoxicity rating ECHCG: 8 (8 - Approaching complete kill)
//
smilesEntry: CC1=CC(N(C)C(=O)COc2nc3ccccc3o2)=CC(C)(C)C1
targetSystem: Echinochloa crus-galli
phytotoxicity rating ECHCG: 0 (0 - No effect)
//
smilesEntry: CC1=CC(N(C(=O)COc2nc3ccccc3o2)C(C)C)=CC(C)(C)C1
targetSystem: Echinochloa crus-galli
phytotoxicity rating ECHCG: 6 (6 - Herbicidal effect)
//
smilesEntry: CCN(C(=O)COc1nnc(C(F)(F)F)s1)C1=CC(C)(C)CC(C)=C1
targetSystem: Echinochloa crus-galli
phytotoxicity rating ECHCG: 7 (7 - Good herbicidal effect)
//
smilesEntry: CCc1nnc(OCC(=O)N(C)C2=CC(C)(C)CC(C)=C2)s1
targetSystem: Echinochloa crus-galli
phytotoxicity rating ECHCG: 0 (0 - No effect)
//
smilesEntry: CCc1nnc(OCC(=O)N(C2=CC(C)(C)CC(C)=C2)C(C)C)s1
targetSystem: Echinochloa crus-galli
phytotoxicity rating ECHCG: 3 (3 - Moderate effect)
//
smilesEntry: CC1=CC(N(C(=O)COc2nnc(C(F)(F)F)s2)C(C)C)=CC(C)(C)C1
targetSystem: Echinochloa crus-galli
phytotoxicity rating ECHCG: 6 (6 - Herbicidal effect)

These entries and their values trace back to patent US6339042B1.
